system: Hs578T; assay: normalised response (% of control), CellTiter-Glo; higher = more viable cells (100 = DMSO, 0 = benzethonium chloride kill control); conditions: incubation time: 72 h
ASSAY_ENDPOINT: normalised response
Just the number plus its unit, please.

Please review the following examples before continuing.
O=c1[nH]c(=O)n([C@H]2C[C@H](O)[C@@H](CO)O2)cc1F [Floxuridine] (1000 nM)	13.5%
O=c1[nH]cc(F)c(=O)[nH]1 [Fluorouracil] (1000 nM)	97.1%
CCOc1cc2ncc(C#N)c(Nc3ccc(OCc4ccccn4)c(Cl)c3)c2cc1NC(=O)/C=C/CN(C)C [Neratinib] (1 nM)	104%

List the reported normalised response of each molecule below.
1. COC1=C2C[C@@H](C)C[C@H](OC)[C@H](O)[C@@H](C)/C=C(\C)[C@H](OC(N)=O)[C@@H](OC)/C=C\C=C(/C)C(=O)NC(=CC1=O)C2=O [Geldanamycin] (1 nM)
2. COc1ncc(-c2ccc3nccc(-c4ccnnc4)c3c2)cc1NS(=O)(=O)c1ccc(F)cc1F (100 nM)
3. Cn1c(=O)c(F)c(Nc2ccc(I)cc2F)c2c(=O)n(C[C@@H](O)CO)cnc21 [TAK-733] (0.1 nM)
4. C[C@@H]1CCN(C(=O)CC#N)C[C@@H]1N(C)c1ncnc2[nH]ccc12 [Tofacitinib] (5 nM)

1. 108%
2. 39%
3. 101%
4. 103%

###

tested on: MDA-MB-468; assay: normalised response (% of control), CellTiter-Glo; higher = more viable cells (100 = DMSO, 0 = benzethonium chloride kill control); settings: incubation time: 72 h
Give measured normalised response for each item. Keep answers brief.
One number for each entry, in %.

COc1ncc(-c2ccc3nccc(-c4ccnnc4)c3c2)cc1NS(=O)(=O)c1ccc(F)cc1F (1000 nM)	12.7
O=C(c1ccc(OCCN2CCCCC2)cc1)c1c(-c2ccc(O)cc2)sc2cc(O)ccc12 [Raloxifene] (10000 nM)	46.1
COC(=O)C[C@](O)(CCCC(C)(C)O)C(=O)O[C@@H]1C(OC)=C[C@]23CCCN2CCc2cc4c(cc2[C@H]13)OCO4 [Omacetaxine] (10000 nM)	4.57
COc1c(C)cnc(Cn2cnc3c(Cl)nc(N)nc32)c1C [BIIB021] (10000 nM)	23.8
CC(C)C[C@H](NC(=O)[C@H](Cc1ccccc1)NC(=O)c1cnccn1)B(O)O [Bortezomib] (1000 nM)	0.97

Report the value of normalised response obtained on MDA-MB-468 for FC(F)c1nc2ccccc2n1-c1nc(N2CCOCC2)nc(N2CCOCC2)n1 [ZSTK474] (10000 nM) .
36.6

###

test system: DU-4475; assay: normalised response (% of control), CellTiter-Glo; higher = more viable cells (100 = DMSO, 0 = benzethonium chloride kill control); conditions: incubation time: 72 h
Give measured normalised response for each item. Keep answers brief.
One number for each entry, in %.

Cn1cnc2c(F)c(Nc3ccc(Br)cc3F)c(C(=O)NOCCO)cc21 [MEK-162] (100 nM)	42.6
COC1=C2C[C@@H](C)C[C@H](OC)[C@H](O)[C@@H](C)/C=C(\C)[C@H](OC(N)=O)[C@@H](OC)/C=C\C=C(/C)C(=O)NC(=CC1=O)C2=O [Geldanamycin] (10 nM)	105
COc1ncc(-c2ccc3nccc(-c4ccnnc4)c3c2)cc1NS(=O)(=O)c1ccc(F)cc1F (100 nM)	78.1

List the reported normalised response of each molecule below.
1. O=c1[nH]c(=O)n([C@H]2C[C@H](O)[C@@H](CO)O2)cc1F [Floxuridine] (1 nM)
2. CCOc1cc2ncc(C#N)c(Nc3ccc(OCc4ccccn4)c(Cl)c3)c2cc1NC(=O)/C=C/CN(C)C [Neratinib] (0.1 nM)
3. COc1cccc2c1C(=O)c1c(O)c3c(c(O)c1C2=O)C[C@@](O)(C(C)=O)C[C@@H]3O[C@H]1C[C@H](N)[C@H](O)[C@H](C)O1 [Daunorubicin] (1 nM)
4. Cn1c(=O)c(F)c(Nc2ccc(I)cc2F)c2c(=O)n(C[C@@H](O)CO)cnc21 [TAK-733] (0.1 nM)
5. FC(F)c1nc2ccccc2n1-c1nc(N2CCOCC2)nc(N2CCOCC2)n1 [ZSTK474] (1000 nM)
6. C[C@@H]1CCN(C(=O)CC#N)C[C@@H]1N(C)c1ncnc2[nH]ccc12 [Tofacitinib] (0.5 nM)
7. C[C@@H]1CCN(C(=O)CC#N)C[C@@H]1N(C)c1ncnc2[nH]ccc12 [Tofacitinib] (500 nM)

[103, 98.5, 107, 99.4, 87.9, 117, 103]

###

Give measured normalised response for each item. Keep answers brief.
tested on: MDA-MB-436; assay: normalised response (% of control), CellTox Green; higher = less cell death (100 = DMSO, 0 = benzethonium chloride kill control); conditions: incubation time: 72 h
Answers are plain numbers, in %.

C[C@@H]1CCN(C(=O)CC#N)C[C@@H]1N(C)c1ncnc2[nH]ccc12 [Tofacitinib] (500 nM)	82.4
CCCC(CCC)C(=O)O [Valproic acid] (100000 nM)	109
COC1=C2C[C@@H](C)C[C@H](OC)[C@H](O)[C@@H](C)/C=C(\C)[C@H](OC(N)=O)[C@@H](OC)/C=C\C=C(/C)C(=O)NC(=CC1=O)C2=O [Geldanamycin] (1000 nM)	92.2

From here, focus on the item given below.
Tell me normalised response reported for COc1ncc(-c2ccc3nccc(-c4ccnnc4)c3c2)cc1NS(=O)(=O)c1ccc(F)cc1F (10 nM)
106

###

Give measured normalised response for each item. Keep answers brief.
system: MDA-MB-231; test: normalised response (% of control), CellTiter-Glo; higher = more viable cells (100 = DMSO, 0 = benzethonium chloride kill control); settings: incubation time: 72 h
One number for each entry, in %.

Please review the following examples before continuing.
COc1ccc(C2=N[C@@H](c3ccc(Cl)cc3)[C@@H](c3ccc(Cl)cc3)N2C(=O)N2CCNC(=O)C2)c(OC(C)C)c1 [Nutlin-3] (100 nM)	102
CC(=O)O[C@H]1C(=O)[C@@]2(C)[C@H]([C@H](OC(=O)c3ccccc3)[C@]3(O)C[C@H](OC(=O)[C@H](O)[C@@H](NC(=O)c4ccccc4)c4ccccc4)C(C)=C1C3(C)C)[C@]1(OC(C)=O)CO[C@@H]1C[C@@H]2O [Paclitaxel] (10 nM)	62.9
C[C@@]1(C(=O)Nc2ccc(F)nc2)CCCN1c1nc(Nc2cc(C3CC3)n[nH]2)c2cccn2n1 (100 nM)	79.8
Nc1nccc(-c2c(-c3ccc(F)cc3)ncn2C2CCCCC2)n1 (100 nM)	106
CC(C)C[C@H](NC(=O)[C@H](Cc1ccccc1)NC(=O)c1cnccn1)B(O)O [Bortezomib] (10 nM)	69.3
COc1ncc(-c2ccc3nccc(-c4ccnnc4)c3c2)cc1NS(=O)(=O)c1ccc(F)cc1F (10 nM)	82
COC1=CC(c2cc3ccccc3[nH]2)=N/C1=C\c1[nH]c(C)cc1C [Obatoclax] (100 nM)	88.4
CCOc1cc2ncc(C#N)c(Nc3ccc(OCc4ccccn4)c(Cl)c3)c2cc1NC(=O)/C=C/CN(C)C [Neratinib] (10 nM)	100

Tell me normalised response reported for Cc1cc(C(C)Nc2ccccc2)c2nc(N3CCOCC3)cc(=O)n2c1 (centres undefined) [TGX-221] (100 nM)
92.7

###

Give measured drug sensitivity score for each item. Keep answers brief.
tested on: MCF-10A; assay: drug sensitivity score (DSS), CellTiter-Glo (DSS (AUC-based score)); higher = stronger drug effect (viability inhibition or cytotoxicity); extreme values may be limits of the assay; conditions: incubation time: 72 h
Give bare numbers.

Please review the following examples before continuing.
C#Cc1cccc(Nc2ncnc3cc(OC)c(OCCCCCCC(=O)NO)cc23)c1	17.5
C[C@@H]1C=C2C(=O)O[C@@H]3CC[C@H](C1)[C@]23O	0
COC(=O)C[C@](O)(CCCC(C)(C)O)C(=O)O[C@@H]1C(OC)=C[C@]23CCCN2CCc2cc4c(cc2[C@H]13)OCO4	22.1
O=c1[nH]cc(F)c(=O)[nH]1	0

List the reported drug sensitivity score of each molecule below.
1. Cc1cc(C(C)Nc2ccccc2)c2nc(N3CCOCC3)cc(=O)n2c1 (stereo not given)
2. COc1ncc(-c2ccc3nccc(-c4ccnnc4)c3c2)cc1NS(=O)(=O)c1ccc(F)cc1F
3. COc1ccc(C2=N[C@@H](c3ccc(Cl)cc3)[C@@H](c3ccc(Cl)cc3)N2C(=O)N2CCNC(=O)C2)c(OC(C)C)c1
4. Cn1cnc2c(F)c(Nc3ccc(Br)cc3F)c(C(=O)NOCCO)cc21
5. FC(F)c1nc2ccccc2n1-c1nc(N2CCOCC2)nc(N2CCOCC2)n1
6. O=c1[nH]c(=O)n([C@H]2C[C@H](O)[C@@H](CO)O2)cc1F

0
17.5
0
13.3
10.9
0
